# Method Description: in vitro
# Assay Conditions: Nanoclick permeability assay EC50
Positions of bridges follow the written chain, without caps; N, C: chain ends. Non-standard residues stand in square brackets, D forms with d. Residues, ends and D or L forms follow the SMILES beside them. Lys(N3) = [N-]=[N+]=NCCCC[C@H](N)C(=O)O; R8 = C=CCCCCCC[C@@](C)(N)C(=O)O; Cba = N[C@@H](CC1CCC1)C(=O)O; S5 = C=CCCC[C@](C)(N)C(=O)O; βAla = NCCC(=O)O
Parameter: cell entry EC50 (nM)
Reply numerically in nM, unit not repeated.

Check out these entries, answers already filled in.
{"Compound": "CC(=O)N[C@@H](CCCCN=[N+]=[N-])C(=O)NCCC(=O)N[C@@H](CO)C(=O)N[C@H](C(=O)N[C@@H](Cc1ccccc1)C(=O)N[C@]1(C)CCCCCCC=CCCC[C@@](C)(C(=O)N[C@@H](CO)C(=O)N[C@@H](C)C(=O)N[C@@H](C)C(N)=O)NC(=O)[C@H](CC2CCC2)NC(=O)[C@H](CCC(N)=O)NC(=O)[C@H](CO)NC(=O)[C@H](Cc2c[nH]c3ccccc23)NC(=O)[C@H](Cc2ccc(O)cc2)NC(=O)[C@H](CO)NC1=O)[C@@H](C)O [MP-5493] (Ac-[Lys(N3)][βAla]STF[R8]SYWSQ[Cba][S5]SAA-NH2; staple 6-13)", "cell entry EC50 (nM)": 29.4}
{"Compound": "CC(=O)N[C@@H](CCCCN=[N+]=[N-])C(=O)NCCC(=O)N[C@@H](CC(C)C)C(=O)N[C@H](C(=O)N[C@@H](Cc1ccccc1)C(=O)N[C@]1(C)CCCCCCC=CCCC[C@@](C)(C(=O)N[C@@H](CO)C(=O)N[C@@H](C)C(=O)N[C@@H](C)C(N)=O)NC(=O)[C@H](CC2CCC2)NC(=O)[C@H](CCC(N)=O)NC(=O)[C@H](C)NC(=O)[C@H](Cc2c[nH]c3ccccc23)NC(=O)[C@H](CCC(=O)O)NC(=O)[C@H](C)NC1=O)[C@@H](C)O [MP-029] (Ac-[Lys(N3)][βAla]LTF[R8]AEWAQ[Cba][S5]SAA-NH2; staple 6-13)", "cell entry EC50 (nM)": 70}
{"Compound": "CC(=O)N[C@@H](CCCCN=[N+]=[N-])C(=O)NCCC(=O)N[C@@H](CC(C)C)C(=O)N[C@H](C(=O)N[C@@H](Cc1ccccc1)C(=O)N[C@]1(C)CCCCCCC=CCCC[C@@](C)(C(=O)N[C@@H](CO)C(=O)N[C@@H](C)C(=O)N[C@@H](C)C(N)=O)NC(=O)[C@H](CC2CCC2)NC(=O)CNC(=O)[C@H](C)NC(=O)[C@H](Cc2c[nH]c3ccccc23)NC(=O)[C@H](Cc2ccc(O)cc2)NC(=O)[C@H](CCC(=O)O)NC1=O)[C@@H](C)O [MP-262] (Ac-[Lys(N3)][βAla]LTF[R8]EYWAG[Cba][S5]SAA-NH2; staple 6-13)", "cell entry EC50 (nM)": 106}
{"Compound": "CC(=O)N[C@@H](CCCCN=[N+]=[N-])C(=O)NCCC(=O)N[C@@H](CC(C)C)C(=O)N[C@H](C(=O)N[C@@H](CCC(=O)O)C(=O)N[C@]1(C)CCCCCCC=CCCC[C@@](C)(C(=O)N[C@@H](CO)C(=O)N[C@@H](C)C(=O)N[C@@H](C)C(N)=O)NC(=O)[C@H](CC2CCC2)NC(=O)[C@H](CCC(N)=O)NC(=O)[C@H](C)NC(=O)[C@H](Cc2c[nH]c3ccccc23)NC(=O)[C@H](Cc2ccc(O)cc2)NC(=O)[C@H](Cc2ccccc2)NC1=O)[C@@H](C)O [MP-123] (Ac-[Lys(N3)][βAla]LTE[R8]FYWAQ[Cba][S5]SAA-NH2; staple 6-13)", "cell entry EC50 (nM)": 682}
{"Compound": "CC(=O)N[C@@H](CS)C(=O)N[C@@H](CCCCN=[N+]=[N-])C(=O)NCCC(=O)N[C@@H](C)C(=O)N[C@H](C(=O)N[C@@H](Cc1ccccc1)C(=O)N[C@]1(C)CCCCCCC=CCCC[C@@](C)(C(=O)N[C@@H](C)C(=O)N[C@@H](C)C(=O)N[C@@H](C)C(N)=O)NC(=O)[C@H](CC2CCC2)NC(=O)[C@H](C)NC(=O)[C@H](C)NC(=O)[C@H](Cc2c[nH]c3ccccc23)NC(=O)[C@H](Cc2ccc(O)cc2)NC(=O)[C@H](C)NC1=O)[C@@H](C)O [MP-987] (Ac-C[Lys(N3)][βAla]ATF[R8]AYWAA[Cba][S5]AAA-NH2; staple 7-14)", "cell entry EC50 (nM)": 217}
{"Compound": "CC(=O)N[C@@H](CCCCN=[N+]=[N-])C(=O)NCCC(=O)N[C@@H](CC(N)=O)C(=O)N[C@H](C(=O)N[C@@H](Cc1ccccc1)C(=O)N[C@]1(C)CCCCCCC=CCCC[C@@](C)(C(=O)N[C@@H](CO)C(=O)N[C@@H](C)C(=O)N[C@@H](C)C(N)=O)NC(=O)[C@H](CC2CCC2)NC(=O)[C@H](CCC(N)=O)NC(=O)[C@H](CC(N)=O)NC(=O)[C@H](Cc2c[nH]c3ccccc23)NC(=O)[C@H](Cc2ccc(O)cc2)NC(=O)[C@H](CC(N)=O)NC1=O)[C@@H](C)O", "cell entry EC50 (nM)": 270}
{"Compound": "CC(=O)N[C@@H](CCCCN=[N+]=[N-])C(=O)NCCC(=O)N1CCC[C@H]1C(=O)N[C@H](C(=O)N[C@@H](Cc1ccccc1)C(=O)N[C@]1(C)CCCCCCC=CCCC[C@@](C)(C(=O)N[C@@H](CO)C(=O)N[C@@H](C)C(=O)N[C@@H](C)C(N)=O)NC(=O)[C@H](CC2CCC2)NC(=O)[C@H](CCC(N)=O)NC(=O)[C@H](C)NC(=O)[C@H](Cc2c[nH]c3ccccc23)NC(=O)[C@H](Cc2ccc(O)cc2)NC(=O)[C@H](CCC(=O)O)NC1=O)[C@@H](C)O [MP-259] (Ac-[Lys(N3)][βAla]PTF[R8]EYWAQ[Cba][S5]SAA-NH2; staple 6-13)", "cell entry EC50 (nM)": 290}

Please look at the following compound next.
Please indicate cell entry EC50 recorded for CC(C)C[C@@H]1NC(=O)[C@H](C)NC(=O)[C@H](Cc2c[nH]c3ccccc23)NC(=O)[C@H](Cc2ccc(O)cc2)NC(=O)[C@H](CCC(=O)O)NC(=O)[C@](C)(NC(=O)[C@H](Cc2ccccc2)NC(=O)[C@H](CO)NC(=O)[C@@H](NC(=O)[C@H](CO)NC(=O)CNC(=O)[C@H](CO)NC(=O)[C@@H](N)CCCCN=[N+]=[N-])[C@@H](C)O)CCCCCCC=CCCC[C@@](C)(C(N)=O)NC(=O)[C@H](CC(C)C)NC1=O
518
